target: Human FRA on IGROV-1 human ovarian adenocarcinoma cells (human, UniProt P15328 25-234); test: cell-based or functional assay
Sequence (P15328 25-234 limits assumed): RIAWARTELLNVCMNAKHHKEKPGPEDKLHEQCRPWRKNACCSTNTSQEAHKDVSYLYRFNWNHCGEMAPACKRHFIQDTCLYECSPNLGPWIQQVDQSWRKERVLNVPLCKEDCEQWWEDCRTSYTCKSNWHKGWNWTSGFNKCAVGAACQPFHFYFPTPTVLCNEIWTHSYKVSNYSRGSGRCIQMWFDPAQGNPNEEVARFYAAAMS
ASSAY_METRIC: INTL % (15 min) (%)

| BINDER | UNIT_DESCRIPTOR | EXPERIMENTAL_VALUE |
| --- | --- | --- |
| MORAb-003 anti-FRA antibody, lot NB810-10 (positive control; harvested 14 days after initiation of culture) (antibody, human IgG1, kappa, V domains shown, N-linked neutral glycans at Asn299 in SEQ ID NO: 5, also called Pos. ctl; positive control (round 1)) VH: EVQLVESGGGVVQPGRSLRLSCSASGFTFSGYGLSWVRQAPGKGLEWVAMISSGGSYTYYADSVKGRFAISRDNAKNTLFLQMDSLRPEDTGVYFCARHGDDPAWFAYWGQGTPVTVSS VL: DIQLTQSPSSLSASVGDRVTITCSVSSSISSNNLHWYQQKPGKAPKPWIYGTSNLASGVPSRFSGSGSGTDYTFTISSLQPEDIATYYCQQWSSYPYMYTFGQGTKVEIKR | % | 4 |
| MORAb-003 anti-FRA antibody, lot NB809-65 (positive control; harvested 13 days after initiation of culture) (antibody, human IgG1, kappa, V domains shown, N-linked neutral glycans at Asn299 in SEQ ID NO: 5, also called Pos. ctl; positive control (round 2)) VH: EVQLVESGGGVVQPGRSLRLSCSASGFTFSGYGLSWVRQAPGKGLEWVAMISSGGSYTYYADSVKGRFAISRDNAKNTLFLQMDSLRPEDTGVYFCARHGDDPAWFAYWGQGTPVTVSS VL: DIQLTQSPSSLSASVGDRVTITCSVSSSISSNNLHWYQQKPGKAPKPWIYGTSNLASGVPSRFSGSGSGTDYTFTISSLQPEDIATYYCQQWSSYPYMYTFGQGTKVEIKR | % | 3 |
| MORAb-003 anti-FRA antibody, lot NB809-66 (0.5 mM Na butyrate; harvested 13 days after initiation of culture) (antibody, human IgG1, kappa, V domains shown, N-linked neutral glycans at Asn299 in SEQ ID NO: 5) VH: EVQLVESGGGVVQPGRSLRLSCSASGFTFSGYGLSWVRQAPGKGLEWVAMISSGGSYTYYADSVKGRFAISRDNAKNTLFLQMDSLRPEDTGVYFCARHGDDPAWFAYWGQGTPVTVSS VL: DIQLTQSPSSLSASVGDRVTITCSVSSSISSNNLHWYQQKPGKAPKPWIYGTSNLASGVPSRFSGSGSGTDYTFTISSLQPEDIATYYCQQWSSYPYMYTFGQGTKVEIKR | % | 3 |
